Tested on: HEC-1-A
Experiment: Cell Proliferation Assay ±NA, HEC-1-A
Type: cell-based
Settings: Homo sapiens, endometrium, NA 10 μM, treatment time 72 hr, tested in a growth medium containing nicotinic acid, read-out: IC50 (μM) NA (10 μM)
quantity: IC50

In: I'd like to know its IC50. The compound in question is `CC(C)(O)CS(=O)(=O)Nc1ccc2c(c1)CCN(C(=O)COc1cccnc1)C2`
Out: > 2 µM

* * *

System: COLO-684
Experiment: Cell Proliferation Assay ±NA, COLO-684
Type: cell-based
Settings: Homo sapiens; COLO-684, endometrium; NA 0.0 μM; treatment time 72 hr; read-out: IC50 (μM) NA (0.0 μM)
quantity: IC50

In: Quick one: IC50 for `CC(C)(O)CS(=O)(=O)Nc1ccc2c(c1)CCN(C(=O)COc1cccnc1)C2` ?
Out: 0.03 µM

* * *

Tested on: A704
Experiment: Cell Proliferation Assay ±NA, A704
Format: cell-based
Conditions: Homo sapiens; A704, kidney; NA 10 μM; treatment time 72 hr; read-out: IC50 (μM) NA (10 μM)
quantity: IC50

In: Consider the compound shown here: CC(C)(O)CS(=O)(=O)Nc1ccc2c(c1)CCN(C(=O)COc1cccnc1)C2 [Example 1] What is its recorded IC50?
Out: > 2 µM

* * *

System: A2780 cells
Assay: A2780 Proliferation Assay ±NAM (Nicotinamide)
Type: cell-based
Details: Homo sapiens, A2780, 72 h, 10 mM nicotinamide added to the growth medium, read-out: IC50 (proliferation of A2780 cells with 10 mM nicotinamide)
Assign IC50 to each entry below.

COCCS(=O)(=O)Nc1ccc2c(c1)CCN(C(=O)COc1cccnc1)C2    > 100 nM

Consider the record given below.
In: Which IC50 value is on record for `CC(C)(O)CS(=O)(=O)Nc1ccc2c(c1)CCN(C(=O)COc1cccnc1)C2` ?
Out: > 100 nM

* * *

Test system: HCC1937 (breast cancer) cells
Assay: Cell Viability Assay, HCC1937
Format: cell-based
Settings: Homo sapiens, 72 hours
quantity: IC50 (nM)
Numbers only, in nM.

List the reported IC50 of each compound below.
1. COCCS(=O)(=O)Nc1ccc2c(c1)CCN(C(=O)COc1cccnc1)C2
2. CC(C)(O)CS(=O)(=O)Nc1ccc2c(c1)CCN(C(=O)COc1cccnc1)C2

Out:
1040
333

* * *

Tested on: NCI-H295
Test: Cell Proliferation Assay ±NA, NCI-H295
Type: cell-based
Conditions: NCI-H295, adrenal gland; NA 10 μM; treatment time 144 hr; read-out: IC50 (μM) NA (10 μM)
quantity: IC50
Reply with the number and its unit after it.

In: Bench note: what IC50 did `CC(C)(O)CS(=O)(=O)Nc1ccc2c(c1)CCN(C(=O)COc1cccnc1)C2` show?
Out: 0.06 µM

* * *

Tested on: SN12C
Assay: Cell Proliferation Assay ±NA, SN12C
Type: cell-based
Conditions: Homo sapiens, kidney, NA 0.0 μM, treatment time 72 hr, read-out: IC50 (μM) NA (0.0 μM)
quantity: IC50 (µM)
One number for each entry, in µM.

In: Please provide the recorded IC50 for CC(C)(O)CS(=O)(=O)Nc1ccc2c(c1)CCN(C(=O)COc1cccnc1)C2 [Example 1] , tested on SN12C.
Out: 0.06
